// reported drug sensitivity score per item
# Test system: MDA-MB-231
# Assay Info: drug sensitivity score (DSS), CellTiter-Blue viability (DSS (AUC-based score)); higher = stronger viability inhibition; extreme values may be limits of the assay
# Stated Conditions: incubation time: 72 h
Please state the value as a number alone, without comment.

# Molecule, Recorded Result
measured = [
    ("CN(N=O)C(=O)N[C@@H](C=O)[C@@H](O)[C@H](O)[C@H](O)CO", 0),
    ("NCC(=O)CCC(=O)O", 0),
    ("CO[C@H]1/C=C\\C=C(/C)C(=O)NC2=CC(=O)C(NCCN(C)C)=C(C[C@@H](C)C[C@H](OC)[C@H](O)[C@@H](C)/C=C(\\C)[C@@H]1OC(N)=O)C2=O", 12.2),
    ("Clc1ccc(Nc2nnc(Cc3ccncc3)c3ccccc23)cc1", 0),
    ("Cc1ccc(C(=O)N(CCCN)[C@@H](c2oc3cc(Cl)ccc3c(=O)c2Cc2ccccc2)C(C)C)cc1", 31.2),
    ("Oc1nc(-c2ccc(C(F)(F)F)cc2)nc2c1CSCC2", 2.73),
    ("O=C1CCC(N2C(=O)c3ccccc3C2=O)C(=O)N1 (centres undefined) [Thalidomide]", 0),
    ("CCC1(c2ccc(N)cc2)CCC(=O)NC1=O (centres undefined) [Aminoglutethimide]", 0),
]

Turning now to a further record.
Can you share its drug sensitivity score? I mean this molecule: NC(=O)Nc1cc(-c2cccc(F)c2)sc1C(=O)N[C@H]1CCCNC1
1.83
